assay: chemical genetic growth profiling, strain panel (AID 1159580);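 further: tested at 20 µM; growth read once vehicle control cultures reached saturation at 30 °C; 1 = growth at the plate median or of vehicle wells; lower values mean less growth of the strain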; conditions: S. cerevisiae deletion strains, growth OD, locus YKR001C, strain vps1, active compounds read low
Screen size: about 5,500 compounds; about 2,000 (36%) were called active. Inconclusive results (about 18%) are left out. This is one part of the list.
readout_type: normalized growth
Answers are plain numbers.

molecule="C[C@@H]1OC(O[C@H]2[C@H](OC(=O)[C@]34CCC(C)(C)CC3C3=CCC5[C@@]6(C)CC[C@H](OC7O[C@@H](C)[C@H](O[C@@H]8OC[C@@H](O)[C@H](O)[C@H]8O)[C@@H](O)[C@H]7O)C(C)(C)C6CC[C@@]5(C)[C@]3(C)CC4O)OC[C@H](O)[C@H]2O)[C@H](O)[C@H](O)[C@H]1O[C@@H]1O[C@H](CO)[C@@H](O)[C@H](O)[C@H]1O (stereo partly drawn)" endpoint_value=0.721
molecule="C/C=C(/C)C(=O)O[C@@H]1[C@H](OC(C)=O)[C@@]2(CO)C(CC1(C)C)C1=CCC3[C@@]4(C)CC[C@H](O[C@@H]5O[C@H](C(=O)O)[C@@H](O[C@@H]6O[C@H](CO)[C@@H](O)[C@H](O)[C@H]6O)[C@H](O)[C@H]5O[C@@H]5O[C@H](CO)[C@@H](O)[C@H](O)[C@H]5O)[C@](C)(CO)C4CC[C@@]3(C)[C@]1(C)C[C@H]2O (stereo partly drawn)" endpoint_value=1.01

Could you now consider this next molecule?
Exercise: Check the records and state normalized growth for COc1ccc2[nH]cc(CCN)c2c1
Solution: 0.987

----------
experiment: chemical genetic growth profiling, strain panel (AID 1159580); conditions: S. cerevisiae deletion strains, growth OD, locus YML120C, strain ndi1
Hit rate of the full screen: of about 5,500 compounds, about 2,000 (36%) were called active. Inconclusive results (about 18%) are left out. No stated cut-off is given here; in the data, active means normalized growth mostly below about 0.91 (no sharp cut-off); inconclusive means no clear call, values can overlap the other calls; inactive means mostly above about 0.92. The list shows a part of the results.
Your reply should match one of these outcome classes. TRUE for active, FALSE for inactive

Record excerpt, results attached:
molecule=COc1cc(C(=O)NCCCCCC(=O)O)cc(OC)c1OC label_value=FALSE
molecule=Cc1ccc(N=CN(C)C=Nc2ccc(C)cc2C)c(C)c1 label_value=FALSE
molecule="CC(=O)O[C@@H]1CC[C@@]2(C)C(CC[C@]3(C)C2CC=C2C4CC(C)(C)CC[C@]4(C(=O)O)CC[C@]23C)C1(C)C (stereo partly drawn)" label_value=FALSE
molecule="CC(C)=CCCC1(C)C=Cc2c(O)c3c(c(CC=C(C)C)c2O1)OC12C(=CC4CC1C(C)(C)OC2(C/C=C(/C)C(=O)O)C4=O)C3=O (stereo not drawn)" label_value=TRUE
molecule="CC1(C)CC[C@]2(C(=O)O)CC[C@]3(C)C(=CCC4[C@@]5(C)CC[C@@H](O)C(C)(C)C5CC[C@]43C)C2C1 (stereo partly drawn)" label_value=FALSE

Exercise: Which result was noted for this molecule in the test: CC1(C)CC[C@]2(C)CC[C@]3(C)C(=CCC4[C@@]5(C)CC[C@H](O)C(C)(C)C5CC[C@]43C)C2C1 (stereo partly drawn)
Solution: FALSE

Exercise: Which result was noted for this molecule in the test: COc1c(-c2coc3cc4c(cc3c2=O)CC(OC(C)=O)C(C)(C)O4)ccc2c1C=CC(C)(C)O2 (stereo not drawn)
Solution: FALSE

Exercise: Which result was noted for this molecule in the test: CC(C)=CCCC1(C)C=Cc2c(O)c3c(c(CC=C(C)C)c2O1)OC12C(=CCCC1C(C)(C)O[C@@]2(C/C=C(\C)C(=O)O)C(=O)O)C3=O (stereo partly drawn)
Solution: FALSE

----------
test: chemical genetic growth profiling, strain panel (AID 1159580);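 further: tested at 20 µM; growth read once vehicle control cultures reached saturation at 30 °C; 1 = growth at the plate median or of vehicle wells; lower values mean less growth of the strain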; details: S. cerevisiae deletion strains, growth OD, locus YER155C, strain BEM2
The campaign covered roughly 5,500 compounds. About 2,000 (36%) were called active. Roughly 18% stayed inconclusive and do not appear here. Cut-off read from the data, not from the text of the source: active = normalized growth mostly below about 0.91 (no sharp cut-off); inconclusive = no clear call, values can overlap the other calls; inactive = mostly above about 0.92. The list shows a part of the results.
Your reply should match one of these outcome classes. yes (1) (active), no (0) (inactive)

Record excerpt, results attached:
compound="C=C/C(C)=C\\CC1C(C)(O)CCC2C(C)(C)CCCC21C (stereo not given)" label_value="yes (1)"
compound="CC1(C)CC[C@]2(C)CC[C@]3(C)C(=CCC4[C@@]5(C)CC[C@H](O)C(C)(C)C5CC[C@]43C)C2C1 (stereo not given in full)" label_value="no (0)"

Exercise: Which result was noted for this compound in the test: CCOP(=S)(OCC)Oc1nc(Cl)c(Cl)cc1Cl
Solution: no (0)

Exercise: Which result was noted for this compound in the test: CC(=O)/C=C\[C@@H]1[C@@]2(C)CCCC(C)(C)C2CC[C@@]1(C)O (stereo not given in full)
Solution: no (0)

Exercise: Which result was noted for this compound in the test: NC12CC3CC(CC(C3)C1)C2
Solution: no (0)

Exercise: Which result was noted for this compound in the test: CNCc1ccccc1
Solution: no (0)

Exercise: Which result was noted for this compound in the test: CCOP(=S)(OCC)Oc1cc(C)nc(C(C)C)n1
Solution: no (0)

Exercise: Which result was noted for this compound in the test: COc1cc(C(=O)O[C@H]2CC[C@@]3(C)[C@@H]4CC[C@H]5[C@]6(O)C[C@H](O)[C@@]7(O)[C@@H](CN8C[C@@H](C)CC[C@H]8[C@@]7(C)O)[C@]6(O)C[C@@]53O[C@]24O)cc(OC)c1OC
Solution: no (0)

Exercise: Which result was noted for this compound in the test: CC1=CCC2C3(C)C1=CC(=O)OC3CC1C(C)(C)CC(O)C(O)C12C (stereo not given)
Solution: no (0)

Exercise: Which result was noted for this compound in the test: Cc1ccnc(NS(=O)(=O)c2ccc(N)cc2)n1
Solution: no (0)

----------
assay: chemical genetic growth profiling, strain panel (AID 1159580);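 further: tested at 20 µM; growth read once vehicle control cultures reached saturation at 30 °C; 1 = growth at the plate median or of vehicle wells; lower values mean less growth of the strain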; conditions: S. cerevisiae deletion strains, growth OD, locus YKL101W, strain HSL1, active compounds read low
Screen size: about 5,500 compounds; about 2,000 (36%) were called active. Inconclusive results (about 18%) are left out. This is one part of the list.
Criterion: normalized growth strictly under 0.9. Met: true (1). Not met: false (0).

molecule=COC(=O)c1cnn(-c2c(Cl)cccc2Cl)c1C=C(C#N)C#N label_value="false (0)"
molecule="COc1cccc(NC(=S)NC2CC(C)CC(C)(C)C2)c1 (configuration not stated)" label_value="false (0)"
molecule=Cc1nc(-c2ccccn2)nc(N(C)Cc2ccccc2)c1Cl label_value="false (0)"
molecule=CCCc1nc(-c2ccccn2)[nH]c(=O)c1CC1CC1 label_value="false (0)"
molecule=S=C(Nc1ccc(Cl)cc1)SCc1c(Cl)cccc1Cl label_value="false (0)"

Exercise: A record lists O=S(=O)(NC(=S)Nc1ccc(Cl)c(Cl)c1)c1ccccc1 . Is its normalized growth below 0.9?
Solution: false (0)

Exercise: A record lists Cc1oc(C(C)(C)C)cc1-c1cc(N)n(-c2ccc(I)cc2)n1 . Is its normalized growth below 0.9?
Solution: false (0)

Exercise: A record lists O=S(=O)(c1ccc(Cl)cc1)N(Cc1cccnc1)Cc1ccc(Cl)cc1Cl . Is its normalized growth below 0.9?
Solution: true (1)

Exercise: A record lists Clc1ccc2c(c1)c1ccccc1n2CN1CCOCC1 . Is its normalized growth below 0.9?
Solution: true (1)

Exercise: A record lists CC(C)Cc1ccc(C(C)C(=O)Nc2nn(C)c3ccccc23)cc1 (configuration not stated) . Is its normalized growth below 0.9?
Solution: false (0)

Exercise: A record lists O=C(c1cccs1)N(Cc1cccnc1)Cc1ccc(Cl)cc1Cl . Is its normalized growth below 0.9?
Solution: false (0)

Exercise: A record lists Cc1nc(-c2ccccn2)[nH]c(=O)c1Cc1c(Cl)cccc1Cl . Is its normalized growth below 0.9?
Solution: true (1)

Exercise: A record lists Brc1ccc2[nH]c3c(c2c1)CCC3 . Is its normalized growth below 0.9?
Solution: true (1)

Exercise: A record lists O=C(NCCNc1ncc(Cl)cc1C(F)(F)F)C(F)(F)Sc1ccccc1 . Is its normalized growth below 0.9?
Solution: false (0)

Exercise: A record lists OC1CCN(c2cc(C(F)(F)F)nc3cc(Cl)cc(Cl)c23)CC1 . Is its normalized growth below 0.9?
Solution: false (0)

----------
assay: chemical genetic growth profiling, strain panel (AID 1159580);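 further: tested at 20 µM; growth read once vehicle control cultures reached saturation at 30 °C; 1 = growth at the plate median or of vehicle wells; lower values mean less growth of the strain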; details: S. cerevisiae deletion strains, growth OD, locus YLR027C, strain aat2, active compounds read low
Out of some 5,500 compounds screened, about 2,000 (36%) were called active. Inconclusive results (about 18%) are left out. The list shows a part of the results.
Could you please report measured normalized growth for the items listed next?

These solved cases illustrate the format of a correct answer.
molecule="COc1cccc2c1C(=O)c1c(O)c3c(c(O)c1C2=O)C[C@@](O)(C(=O)CO)C[C@@H]3OC1C[C@H](N)[C@H](O)[C@H](C)O1 (some centres undefined)" endpoint_value="0.543 (active)"
molecule="CCOC(=O)OC(C)OC(=O)C1N2C(=O)C(NC(=O)[C@H](N)c3ccccc3)C2SC1(C)C (some centres undefined)" endpoint_value="0.984 (inactive)"
molecule=COc1cccc2c1C(=O)c1c(O)c3c(c(O)c1C2=O)C[C@@](O)(C(=O)CO)C[C@@H]3O[C@H]1C[C@H](N)[C@@H](O)[C@H](C)O1 endpoint_value="0.821 (active)"
molecule="CC1OC(=O)C(C(C)C)NC(=O)C(C(C)C)OC(=O)C(C(C)C)NC(=O)C(C)OC(=O)C(C(C)C)NC(=O)C(C(C)C)OC(=O)C(C(C)C)NC(=O)C(C)OC(=O)C(C(C)C)NC(=O)C(C(C)C)OC(=O)C(C(C)C)NC1=O (centres undefined)" endpoint_value="0.27 (active)"
molecule="CC(=O)NC(C(=O)O)C(C)(C)SN=O (centres undefined)" endpoint_value="1 (inactive)"

// for each molecule below, give its normalized growth
1. CCOP(=S)(OCC)Oc1nc(Cl)c(Cl)cc1Cl
2. Nc1ccc(S(=O)(=O)c2ccc(N)cc2)cc1
3. COC1=C[C@@H]2[C@@H]3Cc4ccc(OC)c(O)c4[C@]2(CCN3C)CC1=O
4. COc1ccc2c3c([nH]c2c1)C(C)=NCC3
5. COc1cc(C(=O)NCCCCCC(=O)O)cc(OC)c1OC
6. Nc1c2c(nc3ccccc13)CCCC2O (centres undefined)

Solution:
1. 0.967 (inactive)
2. 1 (inactive)
3. 1 (inactive)
4. 1 (inactive)
5. 0.977 (inactive)
6. 1.01 (inactive)
